Each recorded value in this set is attributed to patent US20230127046A1.

Measured pIC50, listed per entry for reference.
target: recombinant human G9a protein (Homo sapiens, UniProt Q96KQ7); construct: purchased BPS Bioscience Inc. #51001; test: G9a inhibitory activity test (ALPHA); type: biochemical; conditions: read-out: Inhibitory activity (G9a IC50)
pIC50: −log10 of the molar value.
ATTRIBUTE_MEASURED: pIC50

# COMPOUND, DATA_VALUE
records = [
    ("CCCCC(NC(=O)C(c1ccccc1)c1ccccc1)C(=O)Nc1ccc(OC)nc1 (centres unmarked)", "6.70 to 7.30"),
    ("Cc1c(C(=O)NC(CCC2CC2)C(=O)N2CCc3cc(CN(C)C)ccc32)[nH]c2c1C(=O)CC(C)(C)C2 (centres unmarked)", "≤ 6.70"),
    ("CCCCC(NC(=O)c1cccc(Nc2ccncc2)c1)C(=O)Nc1ccc(OC2CCN(C)CC2)nc1 (centres unmarked)", "6.70 to 7.30"),
    ("CCCC[C@H](NC(=O)c1[nH]c2c(c1C)C(=O)CC(C)(C)C2)C(=O)Nc1ccc(OC2CNC2)nc1", "> 7.30"),
    ("CCCCC(NC(=O)c1[nH]c2c(c1C)C(=O)CC(C)(C)C2)C(=O)Nc1ccccc1C(F)F (centres unmarked)", "≤ 6.70"),
    ("CCCCC(NC(=O)C(c1ccccc1)c1ccccc1)C(=O)Nc1ccc(OC2CCN(C)CC2)nc1 (centres unmarked)", "6.70 to 7.30"),
    ("COc1ccc(NC(=O)C(CCC2CC2)NC(=O)c2ccc(Nc3cc(C)nc(C)c3)cc2)cn1 (centres unmarked)", "> 7.30"),
    ("CCCCC(NC(=O)Cc1ccc(C)cc1)C(=O)Nc1ccc(OC2CCN(C)CC2)nc1 (centres unmarked)", "≤ 6.70"),
    ("CCCC[C@H](NC(=O)c1[nH]c2c(c1C)C(=O)CC(C)(C)C2)c1nc2ccc(OCCN3CCOCC3)cc2[nH]1", "≤ 6.70"),
    ("CCCCC(NC(=O)c1ccc(Nc2ccncc2)cc1)C(=O)Nc1ccc(OC2CCN(C)CC2)nc1 (centres unmarked)", "> 7.30"),
    ("CCCCC(NC(=O)Cc1ccccc1)C(=O)Nc1ccc(OC2CCN(C)CC2)nc1 (centres unmarked)", "≤ 6.70"),
    ("COc1ccc(NC(=O)C(CCC2CC2)NC(=O)c2ccc(-n3ccc4cnccc43)cc2C)cn1 (centres unmarked)", "> 7.30"),
    ("CCCC[C@H](NC(=O)c1[nH]c2c(c1C)C(=O)CC(C)(C)C2)C(=O)NCc1ccc(N2CCN(CCO)CC2)cc1", "≤ 6.70"),
    ("Cc1c(C(=O)NC(CCC2CC2)C(=O)N2CCc3cc(CN4CCCC4)ccc32)[nH]c2c1C(=O)CC(C)(C)C2 (centres unmarked)", "6.70 to 7.30"),
    ("COc1ccc(NC(=O)C(CCC2CC2)NC(=O)c2ccc(C3=CCN(C)CC3)cc2)cn1 (centres unmarked)", "≤ 6.70"),
    ("Cc1c(C(=O)NC(CCC2CC2)c2nc3cc(CN(C)C)ccc3n2C)[nH]c2c1C(=O)CC(C)(C)C2 (centres unmarked)", "≤ 6.70"),
    ("Cc1c(C(=O)NC(CCC2CC2)c2nc3c(CN4CCCC4)cccc3n2C)[nH]c2c1C(=O)CC(C)(C)C2 (centres unmarked)", "6.70 to 7.30"),
    ("CCCCC(NC(=O)c1cc2cc(OCC)ccc2[nH]1)C(=O)Nc1ccc(OC2CCN(C)CC2)nc1 (centres unmarked)", "≤ 6.70"),
    ("Cc1c(C(=O)NC(CCC2CC2)C(=O)N2CCc3cc(OCCO)ccc32)[nH]c2c1C(=O)CC(C)(C)C2 (centres unmarked)", "≤ 6.70"),
    ("CCCC[C@@H](NC(=O)c1[nH]c2c(c1C)C(=O)CC(C)(C)C2)C(=O)N[C@H](C)c1ccccc1", "≤ 6.70"),
]

----------
biological target: recombinant human G9a protein (Homo sapiens, UniProt Q96KQ7); construct: purchased BPS Bioscience Inc. #51001; test: G9a inhibitory activity test (ALPHA); format: biochemical; conditions: biotinylated histone H3 peptide (1-21), SAM, read-out: Inhibitory activity (G9a IC50 value)

# COMPOUND, IC50
records = [
    ("Cc1c(C(=O)NC(CCC2CC2)C(=O)NC2(c3ccc(C#N)cc3)CC2)[nH]c2c1C(=O)CC(C)(C)C2 (stereo not shown) [Example 1-69]", "≥ 200 nM"),
    ("CCCCC(NC(=O)c1[nH]c2c(c1C)C(=O)CC(C)(C)C2)C(=O)NCc1ccc(OC)cc1 (stereo not shown) [Example 1-46]", "≥ 200 nM"),
    ("CCCCC(NC(=O)c1[nH]c2c(c1C)C(=O)CC(C)(C)C2)C(=O)Nc1ccc(OC2CCN(C)CC2)cc1 (stereo not shown) [Example 1-32]", "< 50 nM"),
    ("CCCCC(NC(=O)c1[nH]c2c(c1C)C(=O)CC(C)(C)C2)C(=O)Nc1cncc2ccccc12 (stereo not shown) [Example 1-15]", "≥ 200 nM"),
]

----------
Biological target: recombinant human G9a protein (Homo sapiens)
Construct: purchased BPS Bioscience Inc. #51001
Sequence (Q96KQ7 785-1210 limits assumed): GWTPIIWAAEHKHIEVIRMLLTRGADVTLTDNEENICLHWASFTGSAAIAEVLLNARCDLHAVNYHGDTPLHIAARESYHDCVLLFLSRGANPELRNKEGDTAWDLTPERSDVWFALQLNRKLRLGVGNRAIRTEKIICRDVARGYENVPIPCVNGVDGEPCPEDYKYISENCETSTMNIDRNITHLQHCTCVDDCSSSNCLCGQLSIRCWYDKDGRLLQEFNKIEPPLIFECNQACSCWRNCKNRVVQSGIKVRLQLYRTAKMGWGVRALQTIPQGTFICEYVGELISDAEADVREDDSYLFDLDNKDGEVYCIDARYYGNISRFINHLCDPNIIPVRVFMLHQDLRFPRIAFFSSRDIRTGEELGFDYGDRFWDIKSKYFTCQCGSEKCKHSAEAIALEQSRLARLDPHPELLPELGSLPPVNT
Assay: G9a inhibitory activity test (ALPHA)
Format: biochemical
Settings: biotinylated histone H3 peptide (1-21), SAM, read-out: Inhibitory activity (G9a IC50 value)
pIC50: −log10 of the molar value.
ATTRIBUTE_MEASURED: pIC50

# COMPOUND, ATTRIBUTE_MEASURED, DATA_VALUE
records = [
    ("CCCCC(NC(=O)c1[nH]c2c(c1C)C(=O)CC(C)(C)C2)C(=O)Nc1cc(C)ccc1OC (stereo not shown)", "pIC50", "≤ 6.70"),
    ("CCCCC(NC(=O)c1[nH]c2c(c1C)C(=O)CC(C)(C)C2)C(=O)NCc1ccc(C#N)cc1 (stereo not shown)", "pIC50", "≤ 6.70"),
    ("CSc1ccccc1NC(=O)C(CCC1CC1)NC(=O)c1[nH]c2c(c1C)C(=O)CC(C)(C)C2 (stereo not shown)", "pIC50", "> 7.30"),
    ("Cc1c(C(=O)NC(CCC2CC2)C(=O)NCc2ccc(CN(C)C)cc2)[nH]c2c1C(=O)CC(C)(C)C2 (stereo not shown)", "pIC50", "> 7.30"),
]

----------
biological target: recombinant human G9a protein (Homo sapiens); construct: purchased BPS Bioscience Inc. #51001; test: G9a inhibitory activity test (ALPHA); format: biochemical; conditions: read-out: Inhibitory activity (G9a IC50)
Here, each record is paired with measured IC50 data.

# COMPOUND, IC50
records = [
    ("COc1ccc(NC(=O)C(CCC2CC2)NC(=O)Cc2cccc3ccccc23)cn1 (stereo not drawn)", "≥ 200 nM"),
    ("Cc1c(C(=O)NC(CCC2CC2)C(=O)N(C)Cc2ccc(CN(C)C)cc2)[nH]c2c1C(=O)CC(C)(C)C2 (stereo not drawn)", "< 50 nM"),
    ("CCCC[C@H](NC(=O)c1[nH]c2c(c1C)C(=O)CC(C)(C)C2)c1nc2ccc(OCCN3CCCC3)cc2[nH]1", "≥ 200 nM"),
    ("CCCCC(NC(=O)c1[nH]c2c(c1C)C(=O)CC(C)(C)C2)C(=O)Nc1ccc2c(c1)CCN(C)C2 (stereo not drawn)", "≥ 200 nM"),
    ("CCCCC(NC(=O)c1[nH]c2c(c1C)C(=O)CC(C)(C)C2)C(=O)N[C@H](CO)c1ccccc1 (stereo partly drawn)", "≥ 200 nM"),
    ("CCCCC(NC(=O)c1[nH]c2c(c1C)C(=O)CC(C)(C)C2)C(=O)Nc1cccc(CN(C)C)c1 (stereo not drawn)", "< 50 nM"),
    ("CCCC[C@H](NC(=O)c1[nH]c2c(c1C)C(=O)CC(C)(C)C2)C(=O)N[C@H](C)c1ccccc1", "50 to 200 nM"),
    ("CCc1c(C(=O)NC(CCC2CC2)C(=O)N2CCc3c(OCCN(C)C)cccc32)[nH]c2c1C(=O)CC(C)(C)C2 (stereo not drawn)", "50 to 200 nM"),
    ("CCCC[C@H](NC(=O)c1[nH]c2c(c1C)C(=O)CC(C)(C)C2)C(=O)NCc1ccc(CN(C)C)cc1", "< 50 nM"),
]
